The measured values listed here are drawn from patent US5986108A.

target desc: UniProt P07154
protocol description: Assay of inhibition of Cathepsin L (N-CBZ-Phe-Arg-AMC substrate)
Assay type: biochemical
run conditions: r rat CathL, pH5.0, 10 min preincubation at room temperature; read-out: IC50, Cathepsin L
Listing of recorded log10 IC50 by entry.
Plainly stated, the numbers are log10 of IC50 given in nM.

compound	target desc	reported property	readout value
CC(=O)N[C@@H](Cc1ccccc1)C(=O)N[C@@H]1C(=O)N[C@H]1OC(C)=O	UniProt P07154	log10 IC50	3.43

Now for a further compound.
Input N[C@@H](Cc1ccc(O[C@@H]2NC(=O)[C@H]2NC(=O)[C@H](Cc2ccccc2)NC(=O)CCc2ccccc2)cc1)C(=O)O [Example 29B] . Output log10 IC50: 2.47

* * *

Measured pIC50 by item
target desc: Cathepsin L (Rattus norvegicus)
Sequence (P07154 114-334): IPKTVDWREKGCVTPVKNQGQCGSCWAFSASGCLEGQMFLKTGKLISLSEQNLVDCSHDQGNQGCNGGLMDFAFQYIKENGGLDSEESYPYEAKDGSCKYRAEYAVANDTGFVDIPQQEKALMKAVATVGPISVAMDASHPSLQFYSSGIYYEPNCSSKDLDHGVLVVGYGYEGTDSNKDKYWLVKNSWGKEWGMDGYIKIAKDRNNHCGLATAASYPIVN
protocol description: Assay of inhibition of Cathepsin L (N-CBZ-Phe-Arg-AMC substrate)
Type: biochemical
run conditions: r rat CathL, pH5.0, 10 min preincubation at room temperature; read-out: IC50, Cathepsin L
Please treat pIC50 as minus the base-10 logarithm of the molar concentration.

CC(=O)O[C@@H]1NC(=O)[C@H]1NC(=O)[C@H](Cc1ccccc1)NS(=O)(=O)c1ccc2ccccc2c1 tested on Cathepsin L (Rattus norvegicus) gave pIC50: 6.38

# lookup: O=C(CCc1ccccc1)N[C@@H](Cc1ccccc1)C(=O)N[C@@H]1C(=O)N[C@H]1Oc1ccccc1 on Cathepsin L (Rattus norvegicus), pIC50 = 7.25

Let me check: O=C(CCc1ccccc1)N[C@@H](Cc1ccccc1)C(=O)N[C@@H]1C(=O)N[C@H]1Oc1ccc(C[C@H](NC(=O)OCc2ccccc2)C(=O)OC(c2ccccc2)c2ccccc2)cc1 [Example 29A] , system Cathepsin L (Rattus norvegicus), measured pIC50 is 6.80

Cathepsin L (Rattus norvegicus) pIC50 of O=C(N[C@@H](Cc1ccccc1)C(=O)N[C@@H]1C(=O)N(S(=O)(=O)O)[C@H]1Sc1ccccc1)OCc1ccccc1 is 7.17

Hey, Cathepsin L (Rattus norvegicus) data for O=C(CCc1ccccc1)N[C@@H](Cc1ccccc1)C(=O)N[C@@H]1C(=O)N[C@H]1Oc1cccc(C(=O)O)c1 : pIC50 came out at 6.64

pIC50 on Cathepsin L (Rattus norvegicus) for O=C(N[C@@H](Cc1ccccc1)C(=O)N[C@@H]1C(=O)N[C@H]1Sc1ccccc1)OCc1ccccc1 is 9.97

* * *

target desc: UniProtKB P07154
protocol description: Assay of inhibition of Cathepsin L (N-CBZ-Phe-Arg-AMC substrate)
Assay type: biochemical
reported property: IC50 (nM)
Write the number in nM without appending the unit.

Lab entry: UniProtKB P07154 assay, compound CC(=O)O[C@@H]1NC(=O)[C@H]1NC(=O)[C@H](CC(C)C)NC(=O)OCc1ccccc1 [Example 8] , IC50 = 30

* * *

IC50 by entry:
target desc: Cathepsin B (Rattus norvegicus)
Sequence (P00787 80-339): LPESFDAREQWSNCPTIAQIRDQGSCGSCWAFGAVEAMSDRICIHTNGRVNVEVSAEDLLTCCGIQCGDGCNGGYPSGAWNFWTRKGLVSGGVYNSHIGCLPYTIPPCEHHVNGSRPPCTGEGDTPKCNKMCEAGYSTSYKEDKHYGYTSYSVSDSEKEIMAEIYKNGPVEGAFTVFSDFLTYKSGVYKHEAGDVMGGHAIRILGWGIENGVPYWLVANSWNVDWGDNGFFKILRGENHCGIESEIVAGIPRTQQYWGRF
protocol description: In vitro assay of inhibition of Cathepsin B (N-CBZ-Phe-Arg-AMC substrate)
Assay type: biochemical
run conditions: r rat CathB, pH5.1, 10 min preincubation at room temperature; read-out: IC50, Cathepsin B
Supply the numeric figure in µM, leaving out any unit text.

Examples with answers:
smiles string	target desc	unit	IC50
CC(=O)O[C@@H]1NC(=O)[C@H]1NC(=O)[C@H](Cc1ccccc1)NC(=O)N1CCOCC1	Cathepsin B (Rattus norvegicus)	µM	7.4
O=C(N[C@@H](Cc1ccccc1)C(=O)N[C@@H]1C(=O)N[C@H]1S(=O)(=O)c1ccccc1)OCc1ccccc1	Cathepsin B (Rattus norvegicus)	µM	7.39
CC(=O)O[C@@H]1NC(=O)[C@H]1NC(=O)[C@H](Cc1ccccc1)NS(=O)(=O)c1ccc2ccccc2c1	Cathepsin B (Rattus norvegicus)	µM	7.22

According to the records, this molecule O=C(N[C@@H](Cc1ccccc1)C(=O)N[C@@H]1C(=O)N(S(=O)(=O)O)[C@H]1Sc1ccccc1)OCc1ccccc1 displays IC50 of 8.43

* * *

target desc: UniProtKB P07154
protocol description: Assay of inhibition of Cathepsin L (N-CBZ-Phe-Arg-AMC substrate)
Format: biochemical
run conditions: r rat CathL, pH5.0, 10 min preincubation at room temperature; read-out: IC50, Cathepsin L
reported property: pIC50
// scale note: pIC50 = -log10(conc_M); give the bare number

compound	pIC50
CC(=O)O[C@@H]1NC(=O)[C@H]1NC(=O)[C@H](Cc1ccccc1)NC(=O)CCc1cccnc1	5.89

Please turn your attention to the following entry.
# pIC50 of CC(=O)Oc1ccc(OCC(=O)N[C@@H](Cc2ccccc2)C(=O)N[C@@H]2C(=O)N[C@H]2OC(C)=O)cc1 = 5.68

* * *

Listing of recorded pIC50 by entry.
target desc: Cathepsin L (Rattus norvegicus)
protocol description: Assay of inhibition of Cathepsin L (N-CBZ-Phe-Arg-AMC substrate)
Assay type: biochemical
run conditions: r rat CathL, pH5.0, 10 min preincubation at room temperature; read-out: IC50, Cathepsin L
Conceptually, pIC50 converts a concentration in mol/L into minus its log10.

compound	readout value
CC(=O)O[C@@H]1NC(=O)[C@H]1NC(=O)[C@H](Cc1ccccc1)NS(=O)(=O)c1ccc(C(C)(C)C)cc1	7.09
CC(=O)O[C@@H]1NC(=O)[C@H]1NC(=O)[C@H](Cc1ccccc1)NC(=O)/C=C/c1cccs1	7.50
CC(=O)O[C@@H]1NC(=O)[C@H]1NC(=O)[C@H](Cc1ccccc1)NC(=O)c1cc2ccccc2o1	7.46

The record that follows has no pIC50 shown yet.
Hey, Cathepsin L (Rattus norvegicus) data for CC(=O)O[C@@H]1NC(=O)[C@H]1NC(=O)[C@H](Cc1ccccc1)NC(=O)N1CCOCC1 : pIC50 came out at 5.80

* * *

target desc: Cathepsin L (Rattus norvegicus)
protocol description: Assay of inhibition of Cathepsin L (N-CBZ-Phe-Arg-AMC substrate)
Assay type: biochemical
run conditions: r rat CathL, pH5.0, 10 min preincubation at room temperature; read-out: IC50, Cathepsin L
reported property: log10 IC50 (log10 of the value in nM)
Scale: decimal log of IC50, IC50 in nM.

compound	log10 IC50
O=C(CCc1ccccc1)N[C@@H](Cc1ccccc1)C(=O)N[C@@H]1C(=O)N[C@H]1Oc1ccc(C(=O)O)cc1 [Example 27B]	1.58
CC(=O)O[C@@H]1NC(=O)[C@H]1NC(=O)[C@H](C)NC(=O)OCc1ccccc1	4.56
CC(=O)N[C@@H](CC(C)C)C(=O)N[C@@H](CC(C)C)C(=O)N[C@H](C=O)CCCNC(=N)N [Leupeptin, reference compound]	0.90
O=C(N[C@@H](Cc1ccccc1)C(=O)N[C@@H]1C(=O)N[C@H]1S(=O)(=O)c1ccccc1)OCc1ccccc1	-0.90
CC(C)C[C@H](NC(=O)[C@H]1O[C@@H]1C(=O)O)C(=O)NCCCCN=C(N)N [Example E-64, reference compound]	1.18

Field log10 IC50 (entry CC(=O)O[C@@H]1NC(=O)[C@H]1NC(=O)[C@H](Cc1ccccc1)NC(=O)CCc1ccccc1 ) reads 1.54
